assay: in vivo; settings: male, beagle, dog, iv, 1 mg/kg
quantityMeasured: half-life (h)

>>> print(df.to_string())
                                   molecule  resultunits  reading
0  COc1cc(O)c(C(=O)[C@@H]2[C@H](CC=C(C)C)C(C)=CC[C@H]2c2ccccc2)c(O)c1 [Panduratin A, panduratin A]            h     15.2

###

test: in vivo; settings: male, beagle, dog, iv, 1 mg/kg, Cmax
quantityMeasured: Cmax

                                  cpdsmiles     reading
0  COc1cc(O)c(C(=O)[C@@H]2[C@H](CC=C(C)C)C(C)=CC[C@H]2c2ccccc2)c(O)c1  ~100 µg/mL
